- System: MDA-MB-435
- ASSAY_COMMENT: NCI tumour cell line growth inhibition, 48 h
Activity calls are given as the source filed them. Rule as the data show it: active = GI50 up to about 1.1 µM and inactive = higher.
OBSERVATION_TYPE: GI50

# example entries with known answers
{"COMPOUND": "C=C1C(=O)OC2/C=C(\\C)C(O)CC(O)C(C)(O)CC(OC(=O)/C(C)=C/C)C12 (configuration not stated)", "OBSERVATION_TYPE": "GI50", "OBS_VALUE": "36.5 µM (inactive)"}
{"COMPOUND": "CCOC(NC(=O)CC)(C(F)(F)F)C(F)(F)F", "OBSERVATION_TYPE": "GI50", "OBS_VALUE": "> 100 µM (inactive)"}
{"COMPOUND": "O=C(CSc1ncnc2[nH]cnc12)c1ccccc1", "OBSERVATION_TYPE": "GI50", "OBS_VALUE": "> 100 µM (inactive)"}
{"COMPOUND": "Brc1cccc(Nc2nc(-c3cccs3)nc3ccc(Br)cc23)c1", "OBSERVATION_TYPE": "GI50", "OBS_VALUE": "16.6 µM (inactive)"}
{"COMPOUND": "NC(=O)C1CCCN1C(=O)C(Cc1c[nH]cn1)NC(=O)C1CCCC1 (configuration not stated)", "OBSERVATION_TYPE": "GI50", "OBS_VALUE": "> 100 µM (inactive)"}

Input: Any idea what its GI50 is? The compound is OCc1cc2c(ccc3sc4ccc5sc6ccc7ncccc7c6c5c4c32)s1
Output: 24.3 µM (inactive)

Input: Any idea what its GI50 is? The compound is CC1=C(C(=O)Nc2ccccc2C)C(c2ccc(C3C(C(=O)Nc4ccccc4C)=C(C)NC(C)=C3C(=O)Nc3ccccc3C)cc2)C(C(=O)Nc2ccccc2C)=C(C)N1
Output: 4.32 µM (inactive)

Input: Any idea what its GI50 is? The compound is CC(C)(C)C1CCC2c3c([nH]c4ccccc34)C3C(=O)N(c4cc(Br)cc(Br)c4)C(=O)C3C2C1 (configuration not stated)
Output: 19.7 µM (inactive)

====

GI50 for assorted compounds
- System: UACC-62
- ASSAY_COMMENT: NCI tumour cell line growth inhibition, 48 h
Active and inactive are the calls of the source. No stated cut-off is given here; in the data, active = GI50 up to about 1.1 µM and inactive = higher.

{"COMPOUND": "COc1ccc(C(=O)C(C(=O)C(=O)Nc2nc3ccc(OC)cc3s2)c2ccc(OC)cc2)cc1 (stereo not given)", "GI50": "> 100 µM (inactive)"}
{"COMPOUND": "COc1ccc(OC)c(CC(C)N)c1 (stereo not given)", "GI50": "> 100 µM (inactive)"}

Input: Request body: readout GI50, system UACC-62, query COc1ccc(N2C(=O)[C@@H](N=[N+]=[N-])[C@@H]2[C@H]2COC(C)(C)O2)cc1 . Return the value.
Output: 75 µM (inactive)

Input: Request body: readout GI50, system UACC-62, query COC(=O)C1=C(O)c2cc(OC)c(OC)c(OC)c2[C@H](c2cc(OC)c(OC)c(OC)c2)C1C(=O)OC (stereo not given in full) . Return the value.
Output: 14 µM (inactive)

Input: Request body: readout GI50, system UACC-62, query COC(=O)c1cc(NC(=O)c2cc(NC(=O)Cc3c[nH]c4ccccc34)cn2C)cn1C . Return the value.
Output: 20.2 µM (inactive)
